# Tested on: primary rat microglia
# test name: Cell toxicity (dead cells, size <150 μm2) in coated fibrin (cFib) assay;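 note: share of dead cells sized under 150 µm2 at 10 µM in fibrin-stimulated microglia HTS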
# condition info: primary HTS, 10 μM, fibrin assay, dead cells size <150 μm2
Structures can show the parent of a compound that is named as a salt.
property label: Fibrin % cell toxicity (%)

[[record]]
compound = "NC(=O)N[C@@H](CCC(=O)O)C(=O)O"
measurement_units = "%"
measured_number = 1

[[record]]
compound = "CC(=O)OCC1=C(C(=O)O)N2C(=O)[C@@H](NC(=O)Cc3cccs3)[C@H]2SC1"
measurement_units = "%"
measured_number = 1

[[record]]
compound = "CN1C(=O)CC[C@H]1c1cccnc1"
measurement_units = "%"
measured_number = 1

[[record]]
compound = "Oc1ccc(Cl)c2cccnc12"
measurement_units = "%"
measured_number = 0

[[record]]
compound = "Oc1c(Br)cc(Br)c2cccnc12"
measurement_units = "%"
measured_number = 0

[[record]]
compound = "CC1(C)S[C@@H]2[C@H](NC(=O)C(C(=O)O)c3ccccc3)C(=O)N2[C@H]1C(=O)O (stereo partly drawn)"
measurement_units = "%"
measured_number = 1

[[record]]
compound = "CO[C@@]1(NC(=O)CSCC#N)C(=O)N2C(C(=O)O)=C(CSc3nnnn3C)CS[C@@H]21"
measurement_units = "%"
measured_number = 0

[[record]]
compound = "CCN(CC)CCNC(C(=O)OCCC(C)C)c1ccccc1 (stereo not drawn) [Camylofine Dihydrochloride]"
measurement_units = "%"
measured_number = 1

[[record]]
compound = "CC1=C(C(=O)O)N2C(=O)[C@@H](NC(=O)[C@H](N)c3ccc(O)cc3)[C@H]2SC1"
measurement_units = "%"
measured_number = 0


====

Quick list: LPS % cell toxicity per entry.
# System: primary rat microglia
# test name: Cell toxicity (dead cells, size <150 μm2) in LPS assay
# condition info: primary microglia HTS, LPS stimulation, toxicity = cell size <150 μm2
Counter-ions that a name gives are not always drawn.
property label: LPS % cell toxicity

[[record]]
compound = "CC(COc1ccccc1)NC(C)C(O)c1ccc(O)cc1 (stereo not shown) [Isoxsuprine Hydrochloride]"
result = "0%"

[[record]]
compound = "CC(=O)N(CC(O)CO)c1c(I)c(C(=O)NCCO)c(I)c(C(=O)NCC(O)CO)c1I (stereo not shown) [Ioxilan]"
result = "0%"

[[record]]
compound = "Cc1c(Nc2ncccc2C(=O)O)cccc1C(F)(F)F [Flunixin Meglumine]"
result = "0%"

[[record]]
compound = "O=C(NCC1CCCCN1)c1cc(OCC(F)(F)F)ccc1OCC(F)(F)F (stereo not shown) [Flecainide]"
result = "0%"

[[record]]
compound = "CC(C)(C)NC[C@H](O)COc1cccc2c1CCCC2=O [Levobunolol Hydrochloride]"
result = "0%"

[[record]]
compound = "OC[C@H]1O[C@@H](n2cnc3c(O)ncnc32)[C@H](O)[C@@H]1O [Inosine]"
result = "0%"

[[record]]
compound = "O=C(O)c1ccccc1OP(=O)(O)O [Fosfosal]"
result = "1%"

[[record]]
compound = "CC1(C)OC(=O)C(OCC2CC2)=C1c1ccc(S(C)(=O)=O)cc1 [Firocoxib]"
result = "1%"

[[record]]
compound = "O=C(O)c1ccccc1Nc1cccc(C(F)(F)F)c1 [Flufenamic Acid]"
result = "0%"

[[record]]
compound = "CC1(C)S[C@@H]2[C@H](N3C(=O)[C@@H](c4ccccc4)NC3(C)C)C(=O)N2[C@H]1C(=O)O [Hetacillin Potassium]"
result = "1%"

[[record]]
compound = "CC/C=C\\C/C=C\\C/C=C\\C/C=C\\C/C=C\\CCCC(=O)OCC [Icosapent ethyl]"
result = "0%"

[[record]]
compound = "FC(F)(F)COCC(F)(F)F [Flurothyl]"
result = "0%"

[[record]]
compound = "CC(N)CCCC(C)(C)O (stereo not shown) [Heptaminol Hydrochloride]"
result = "0%"

[[record]]
compound = "CC1Cc2ccccc2N1NC(=O)c1ccc(Cl)c(S(N)(=O)=O)c1 (stereo not shown) [Indapamide]"
result = "0%"

[[record]]
compound = "CC[C@H]1CN2CC[C@H]1C[C@@H]2[C@@H](O)c1ccnc2ccc(OC)cc12 [Hydroquinidine]"
result = "0%"

[[record]]
compound = "N#Cc1nn(-c2c(Cl)cc(C(F)(F)F)cc2Cl)c(N)c1[S+]([O-])C(F)(F)F (stereo not shown) [Fipronil]"
result = "0%"

[[record]]
compound = "CC(C)(C)NC[C@H](O)COc1cccc2c1CCCC2=O [Levobunolol]"
result = "0%"

[[record]]
compound = "Br.COc1ccc2c3c1O[C@H]1C[C@@H](O)C=C[C@@]31CCN(C)C2 [Galanthamine Hydrobromide, Galantamine]"
result = "0%"

[[record]]
compound = "C=COCC(F)(F)F [Fluroxene]"
result = "0%"

